Ki listing for selected compounds.
Biological target: Beta-2 adrenergic receptor (Homo sapiens)
Sequence (P07550 whole entry): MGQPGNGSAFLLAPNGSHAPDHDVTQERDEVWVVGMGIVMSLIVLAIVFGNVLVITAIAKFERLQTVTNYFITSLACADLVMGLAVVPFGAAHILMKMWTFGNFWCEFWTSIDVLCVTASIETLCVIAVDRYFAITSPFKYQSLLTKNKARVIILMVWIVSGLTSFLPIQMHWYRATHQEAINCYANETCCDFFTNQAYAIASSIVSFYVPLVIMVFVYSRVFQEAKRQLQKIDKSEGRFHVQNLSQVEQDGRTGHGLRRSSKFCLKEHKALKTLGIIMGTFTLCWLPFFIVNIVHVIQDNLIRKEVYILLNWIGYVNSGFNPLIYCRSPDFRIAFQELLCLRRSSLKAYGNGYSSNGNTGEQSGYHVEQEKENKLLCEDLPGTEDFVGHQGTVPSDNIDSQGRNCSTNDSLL
Test: Displacement of [3H]CGP12177 from human beta2 receptor expressed in HEK Flp-In cells measured after 90 mins by microbeta scintillation counting method

| smiles | Ki |
| --- | --- |
| CN1CC[C@H]2CC(=O)[C@H](Cc3ccccc3)[C@H]3CCC[C@@H]1[C@H]23 | > 10 µM |

Proceeding to the next compound to report its Ki.
Return the recorded Ki value; entry: `CCCN1CC[C@H]2c3cc4ccc(C(F)(F)F)cc4nc3[C@H](CC)[C@H]3CCC[C@@H]1[C@@H]32`
> 10 µM

---

Target: UniProtKB P21728
Sequence (P21728 whole entry): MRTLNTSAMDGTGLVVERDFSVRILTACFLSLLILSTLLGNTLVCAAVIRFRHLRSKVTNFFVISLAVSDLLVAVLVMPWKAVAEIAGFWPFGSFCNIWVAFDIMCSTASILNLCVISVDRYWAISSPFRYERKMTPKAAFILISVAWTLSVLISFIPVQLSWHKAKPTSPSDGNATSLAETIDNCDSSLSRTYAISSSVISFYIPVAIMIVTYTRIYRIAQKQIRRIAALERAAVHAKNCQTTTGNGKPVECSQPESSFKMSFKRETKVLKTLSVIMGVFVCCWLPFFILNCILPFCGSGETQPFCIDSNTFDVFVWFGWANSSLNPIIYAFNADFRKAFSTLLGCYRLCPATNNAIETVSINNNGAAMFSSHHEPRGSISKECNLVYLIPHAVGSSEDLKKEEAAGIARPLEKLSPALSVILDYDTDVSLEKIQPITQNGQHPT
Assay: Displacement of [3H]SCH23390 from human D1 receptor expressed in HEK-T cells measured after 90 mins by microbeta scintillation counting method
Measured Ki, listed per entry.

| smiles | test-system | Ki |
| --- | --- | --- |
| CN1CC[C@H]2CC(=O)[C@H](Cc3ccccc3)[C@H]3CCC[C@@H]1[C@H]23 | UniProtKB P21728 | > 10 µM |

# evaluate next
Recall the reported Ki of `CCCN1CC[C@H]2c3cc4ccc(C(F)(F)F)cc4nc3[C@H](CC)[C@H]3CCC[C@@H]1[C@@H]32` on UniProtKB P21728 and write it down.
> 10 µM

---

Reported values of pKi for individual entries
Target: Sigma non-opioid intracellular receptor 1 (Cavia porcellus)
Sequence (Q60492 whole entry): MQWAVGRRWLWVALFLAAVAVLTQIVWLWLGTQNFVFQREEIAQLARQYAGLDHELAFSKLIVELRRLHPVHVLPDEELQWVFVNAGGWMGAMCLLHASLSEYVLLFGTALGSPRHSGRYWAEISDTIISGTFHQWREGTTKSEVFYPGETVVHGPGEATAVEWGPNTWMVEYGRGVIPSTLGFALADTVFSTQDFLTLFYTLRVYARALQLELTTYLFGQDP
Assay: Displacement of [3H]pentazocine from guinea pig sigma1 receptor measured after 90 mins by microbeta scintillation counting method
pKi here: minus log base 10 of the concentration, concentration in moles per litre.

| smiles | readout-label | recorded-number |
| --- | --- | --- |
| CCCN1CC[C@H]2c3cc4cccc(OC)c4nc3[C@H](CC)[C@H]3CCC[C@@H]1[C@@H]32 | pKi | 6.77 |

Answer with the recorded pKi for the compound listed here: `CC(C)CCN1CC[C@H]2CC(=O)[C@H](Cc3ccccc3)[C@H]3CCC[C@@H]1[C@H]23`
8.70

Answer with the recorded pKi for the compound listed here: `CC[C@H]1C(=O)C[C@@H]2CCN(C(=O)NCc3ccc(Cl)cc3)[C@@H]3CCC[C@H]1[C@@H]23`
6.14

Give pKi for `CCCN1CC[C@H]2c3cc4cc(Cl)ccc4nc3[C@H](CC)[C@H]3CCC[C@@H]1[C@@H]32`
6.68

Give pKi for the following compound: `CC[C@H]1C(=O)C[C@@H]2CCN(Cc3cccs3)[C@@H]3CCC[C@H]1[C@@H]23`
8.22

---

# pKi per entry
Target: Alpha-1A adrenergic receptor (Homo sapiens, UniProt P35348)
Sequence (P35348 whole entry): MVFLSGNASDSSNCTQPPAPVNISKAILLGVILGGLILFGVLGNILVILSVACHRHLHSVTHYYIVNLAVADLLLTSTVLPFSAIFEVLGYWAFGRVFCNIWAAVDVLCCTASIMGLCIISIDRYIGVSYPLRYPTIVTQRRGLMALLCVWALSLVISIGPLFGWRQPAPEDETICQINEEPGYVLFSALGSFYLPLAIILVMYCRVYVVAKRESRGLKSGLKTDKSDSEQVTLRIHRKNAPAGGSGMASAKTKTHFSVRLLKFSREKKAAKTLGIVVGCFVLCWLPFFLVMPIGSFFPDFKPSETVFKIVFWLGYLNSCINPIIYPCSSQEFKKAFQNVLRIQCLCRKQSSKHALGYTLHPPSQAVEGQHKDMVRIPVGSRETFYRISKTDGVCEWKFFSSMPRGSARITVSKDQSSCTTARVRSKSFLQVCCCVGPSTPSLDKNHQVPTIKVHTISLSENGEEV
pKi: −log10 of the molar value.

| smiles | test-system | pKi |
| --- | --- | --- |
| CN1CC[C@H]2CC(=O)[C@H](Cc3ccccc3)[C@H]3CCC[C@@H]1[C@H]23 | Alpha-1A adrenergic receptor (Homo sapiens, UniProt P35348) | < 5.00 |

Switching to the query record.
Using the record for `CCCN1CC[C@H]2c3cc4ccc(C(F)(F)F)cc4nc3[C@H](CC)[C@H]3CCC[C@@H]1[C@@H]32` , state its measured pKi.
< 5.00

---

Target: 5-hydroxytryptamine receptor 2B (Homo sapiens, UniProt P41595)
Sequence (P41595 whole entry): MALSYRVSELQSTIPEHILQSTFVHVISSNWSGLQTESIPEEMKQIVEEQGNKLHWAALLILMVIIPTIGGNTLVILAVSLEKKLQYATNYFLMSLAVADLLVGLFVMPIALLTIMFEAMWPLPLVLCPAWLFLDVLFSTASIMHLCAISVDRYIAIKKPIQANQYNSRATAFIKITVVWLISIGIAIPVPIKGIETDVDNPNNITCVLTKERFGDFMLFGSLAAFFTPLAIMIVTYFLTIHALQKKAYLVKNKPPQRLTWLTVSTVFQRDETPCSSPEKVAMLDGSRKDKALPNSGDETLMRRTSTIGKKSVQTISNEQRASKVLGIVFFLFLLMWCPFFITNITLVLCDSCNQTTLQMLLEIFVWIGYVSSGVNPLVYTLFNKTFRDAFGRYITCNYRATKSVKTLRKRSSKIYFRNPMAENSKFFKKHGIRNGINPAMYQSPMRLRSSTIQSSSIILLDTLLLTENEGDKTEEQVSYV
readout-label: Ki (µM)
API: value field is a number in µM; no unit string.

Under 5-hydroxytryptamine receptor 2B (Homo sapiens, UniProt P41595): report Ki of `CN1CC[C@H]2CC(=O)[C@H](Cc3ccccc3)[C@H]3CCC[C@@H]1[C@H]23` .
1.91

---

This listing pairs molecules with measured Ki.
Biological target: Sigma non-opioid intracellular receptor 1 (Cavia porcellus)
Experiment: Displacement of [3H]pentazocine from guinea pig sigma1 receptor measured after 90 mins by microbeta scintillation counting method

The following molecules have reported results that may help.
| smiles | result |
| --- | --- |
| CC[C@H]1C(=O)C[C@@H]2CCN(CCOC)[C@@H]3CCC[C@H]1[C@@H]23 | 26 nM |
| CC[C@H]1C(=O)C[C@@H]2CCN(CC3CCCCC3)[C@@H]3CCC[C@H]1[C@@H]23 | 4 nM |
| CCCN1CC[C@H]2c3cc4ccc(C(F)(F)F)cc4nc3[C@H](CC)[C@H]3CCC[C@@H]1[C@@H]32 | 423 nM |
| O=C1C[C@@H]2CCN(Cc3cccs3)[C@@H]3CCC[C@@H]([C@@H]23)[C@H]1Cc1ccccc1 | 3 nM |
| CC[C@H]1C(=O)C[C@@H]2CCN(Cc3nccs3)[C@@H]3CCC[C@H]1[C@@H]23 | 407 nM |
| CC[C@H]1C(=O)C[C@@H]2CCN(CCC(C)C)[C@@H]3CCC[C@H]1[C@@H]23 | 4 nM |

Determine its reported Ki: `CN1CC[C@H]2CC(=O)[C@H](Cc3ccccc3)[C@H]3CCC[C@@H]1[C@H]23`
1.5 to 2 nM

Quote Ki reported for `CC[C@H]1C(=O)C[C@@H]2CCN(C)[C@@H]3CCC[C@H]1[C@@H]23` please.
137 nM

Return reported Ki. Input molecule: `CCCN1CC[C@H]2CC(=O)[C@H](Cc3ccc(OC)cc3)[C@H]3CCC[C@@H]1[C@H]23`
9 nM

Give Ki for `CCCN1CC[C@H]2CC(=O)[C@H](Cc3ccccc3)[C@H]3CCC[C@@H]1[C@H]23`
1 nM

Look up and report measured Ki for this entry: `CCCN1CC[C@H]2c3cc4ccccc4nc3[C@H](CC)[C@H]3CCC[C@@H]1[C@@H]32`
70 nM

---

Ratio Ki by entry:
Test system: PC-12
Experiment: Selectivity ratio of Ki for sigma2 receptor in rat PC12 cells to Ki for guinea pig sigma1 receptor
Assay type: cell-based
Keep the answer to the number alone.

Some compounds with known Ratio Ki results, for comparison:
| smiles | test-system | Ratio Ki |
| --- | --- | --- |
| CC(C)CCN1CC[C@H]2CC(=O)[C@H](Cc3ccccc3)[C@H]3CCC[C@@H]1[C@H]23 | PC-12 | 1.5 |
| CC[C@H]1C(=O)C[C@@H]2CCN(Cc3cccs3)[C@@H]3CCC[C@H]1[C@@H]23 | PC-12 | 31.2 |
| COc1ccc(C[C@H]2C(=O)C[C@@H]3CCN(CCC(C)C)[C@@H]4CCC[C@H]2[C@@H]34)cc1 | PC-12 | 2 |

Let's switch to this compound now.
Name the recorded Ratio Ki of the item `CCCN1CC[C@H]2CC(=O)[C@H](CC)[C@H]3CCC[C@@H]1[C@H]23` in your answer.
20.9

---

These molecules were tested on Sodium-dependent serotonin transporter (Homo sapiens, UniProt P31645); Ki is the recorded read-out.
Sequence (P31645 whole entry): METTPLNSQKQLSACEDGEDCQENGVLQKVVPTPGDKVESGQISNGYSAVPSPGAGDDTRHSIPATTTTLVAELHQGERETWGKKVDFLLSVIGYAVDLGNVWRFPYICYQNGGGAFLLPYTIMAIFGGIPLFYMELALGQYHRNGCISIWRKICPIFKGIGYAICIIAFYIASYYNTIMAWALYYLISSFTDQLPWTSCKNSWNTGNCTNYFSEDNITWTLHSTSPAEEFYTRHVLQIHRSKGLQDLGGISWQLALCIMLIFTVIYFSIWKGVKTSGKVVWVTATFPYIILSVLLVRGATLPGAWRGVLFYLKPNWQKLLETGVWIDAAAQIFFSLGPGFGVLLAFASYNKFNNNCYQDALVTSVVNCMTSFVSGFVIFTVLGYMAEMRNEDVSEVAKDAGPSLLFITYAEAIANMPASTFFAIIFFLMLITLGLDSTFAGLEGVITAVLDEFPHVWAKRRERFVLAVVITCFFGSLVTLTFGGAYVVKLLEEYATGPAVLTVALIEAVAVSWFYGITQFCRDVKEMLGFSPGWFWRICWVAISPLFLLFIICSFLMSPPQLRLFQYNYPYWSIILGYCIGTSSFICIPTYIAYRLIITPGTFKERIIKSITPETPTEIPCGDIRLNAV

| smiles | Ki |
| --- | --- |
| CCCN1CC[C@H]2c3cc4ccc(C(F)(F)F)cc4nc3[C@H](CC)[C@H]3CCC[C@@H]1[C@@H]32 | > 10 µM |

Write Ki of `CN1CC[C@H]2CC(=O)[C@H](Cc3ccccc3)[C@H]3CCC[C@@H]1[C@H]23` ; system used: Sodium-dependent serotonin transporter (Homo sapiens, UniProt P31645)
> 10 µM

---

Molecular target: 5-hydroxytryptamine receptor 2C (Homo sapiens)
Sequence (P28335 whole entry): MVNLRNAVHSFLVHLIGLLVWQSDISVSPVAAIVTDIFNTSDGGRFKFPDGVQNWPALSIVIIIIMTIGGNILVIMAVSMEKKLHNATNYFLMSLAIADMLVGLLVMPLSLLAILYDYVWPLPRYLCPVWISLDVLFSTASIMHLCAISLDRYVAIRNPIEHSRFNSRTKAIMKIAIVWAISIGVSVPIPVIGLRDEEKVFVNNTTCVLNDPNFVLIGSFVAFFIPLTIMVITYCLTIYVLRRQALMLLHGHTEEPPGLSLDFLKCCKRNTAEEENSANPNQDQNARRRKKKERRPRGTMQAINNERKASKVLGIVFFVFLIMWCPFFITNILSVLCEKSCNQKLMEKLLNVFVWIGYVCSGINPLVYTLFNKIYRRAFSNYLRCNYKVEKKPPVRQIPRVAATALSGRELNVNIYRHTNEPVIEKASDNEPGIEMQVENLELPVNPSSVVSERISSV
Test: Displacement of [3H]Mesulergine from human 5-HT2C receptor expressed in Flp-IN HEK cells measured after 90 mins by microbeta scintillation counting method
readout-label: Ki (nM)
I only need the number, in nM, no unit after it.

Dear colleague, please send me the reported Ki for `CN1CC[C@H]2CC(=O)[C@H](Cc3ccccc3)[C@H]3CCC[C@@H]1[C@H]23` when you can.
1680

---

Listing of recorded pKi by entry.
Target: Delta-type opioid receptor (Homo sapiens, UniProt P41143)
Sequence (P41143 whole entry): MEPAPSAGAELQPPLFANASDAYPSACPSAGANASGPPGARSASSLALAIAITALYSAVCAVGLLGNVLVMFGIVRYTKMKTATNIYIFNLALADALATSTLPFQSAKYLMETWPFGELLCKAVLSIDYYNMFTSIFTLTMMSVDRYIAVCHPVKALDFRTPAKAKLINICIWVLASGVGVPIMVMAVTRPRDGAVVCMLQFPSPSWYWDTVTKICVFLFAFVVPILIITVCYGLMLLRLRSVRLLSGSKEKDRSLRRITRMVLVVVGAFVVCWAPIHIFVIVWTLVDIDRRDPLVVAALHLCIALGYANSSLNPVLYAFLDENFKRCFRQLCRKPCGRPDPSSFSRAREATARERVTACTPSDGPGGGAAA
Test: Displacement of [3H]DADLE from human DOR expressed in HEK cells measured after 90 mins by microbeta scintillation counting method
pKi: −log10 of the molar value.

Record excerpt, results attached:
| smiles | test-system | pKi |
| --- | --- | --- |
| COc1ccc(C[C@H]2C(=O)C[C@@H]3CCN(C)[C@@H]4CCC[C@H]2[C@@H]34)cc1 | Delta-type opioid receptor (Homo sapiens, UniProt P41143) | < 5.00 |
| CCCN1CC[C@H]2CC(=O)C[C@H]3CCC[C@@H]1[C@@H]32 | Delta-type opioid receptor (Homo sapiens, UniProt P41143) | < 5.00 |
| CC[C@H]1c2nc3ccccc3cc2[C@@H]2CCN(C)[C@@H]3CCC[C@H]1[C@H]32 | Delta-type opioid receptor (Homo sapiens, UniProt P41143) | < 5.00 |

Next:
Give pKi for the following compound: `COCCN1CC[C@H]2CC(=O)[C@H](Cc3ccccc3)[C@H]3CCC[C@@H]1[C@H]23`
< 5.00

---

Target: 5-hydroxytryptamine receptor 1A (Homo sapiens, UniProt P08908)
Sequence (P08908 whole entry): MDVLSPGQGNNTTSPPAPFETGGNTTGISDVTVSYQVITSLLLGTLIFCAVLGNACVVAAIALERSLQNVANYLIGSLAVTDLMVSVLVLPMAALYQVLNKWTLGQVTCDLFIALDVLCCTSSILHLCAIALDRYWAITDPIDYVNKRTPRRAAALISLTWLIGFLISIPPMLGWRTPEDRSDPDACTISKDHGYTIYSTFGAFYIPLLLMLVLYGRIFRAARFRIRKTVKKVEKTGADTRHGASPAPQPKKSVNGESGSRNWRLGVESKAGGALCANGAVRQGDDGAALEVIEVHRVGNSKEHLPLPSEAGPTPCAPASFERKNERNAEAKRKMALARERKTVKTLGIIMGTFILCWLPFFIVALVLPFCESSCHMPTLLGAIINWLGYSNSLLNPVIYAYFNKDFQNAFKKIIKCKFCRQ
readout-label: Ki

Below, 2 compounds whose answers are already recorded.
| smiles | result |
| --- | --- |
| CN1CC[C@H]2CC(=O)[C@H](Cc3ccccc3)[C@H]3CCC[C@@H]1[C@H]23 | > 10 µM |
| CCCN1CC[C@H]2c3cc4ccc(C(F)(F)F)cc4nc3[C@H](CC)[C@H]3CCC[C@@H]1[C@@H]32 | > 10 µM |

// Input: `CCCN1CC[C@H]2CC(=O)[C@H](CC)[C@H]3CCC[C@@H]1[C@H]23` . Output its Ki only.
4.5 µM
